Molecular target: T1, 4H3381-bH
T1 chain: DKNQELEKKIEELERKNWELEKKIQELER
Assay: two-hybrid library CCNG1;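 also: natural log of median RNA to DNA barcode read ratio; higher means stronger binding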
test.readout: interaction score

query: Which interaction score is listed for DEIQELEKKIEELEREIWELEKKNQELKR [4H264-bH] ?
result: 1.06

query: Which interaction score is listed for DKIQQLEQENQELEQKIQELKWKNQELEQ [4H2223-bN] ?
result: 0.0621

query: Which interaction score is listed for DKIQELKKENEELKREIWELEKKNQELKR [4H2760-bH] ?
result: 0.571

query: Which interaction score is listed for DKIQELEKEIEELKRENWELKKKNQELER [4H2143-bH] ?
result: 0.106

query: Which interaction score is listed for DKIQELKKKIEELERKIWELKKENQELER [4H2859-bH] ?
result: 0.199

query: Which interaction score is listed for DKNQELEKENEELKRKIWELEKEIQELER [4H3297-bH] ?
result: -0.113

query: Which interaction score is listed for DKNQELEKKIEELERKIWELEKENQELKR [4H3364-bH] ?
result: 0.55

query: Which interaction score is listed for DKIQELKKKIEELKRKNWELEKENQELER [4H2931-bH] ?
result: -0.508

query: Which interaction score is listed for DKIQELEKEIEELKRKNWELEKEIQELKR [4H2162-bH] ?
result: 0.0641

query: Which interaction score is listed for DEIQELEKENEELKRKIWELKKENQELER [4H235-bH] ?
result: 0

query: Which interaction score is listed for DKIQELEKKNEELEREIWELKKENQELKR [4H2444-bH] ?
result: 0.313

query: Which interaction score is listed for DKNQELEKKIEELERKNWELEKKIQELER [4H3381-bH] ?
result: 1.27

query: Which interaction score is listed for DENQELKKENEELERKIWELKKKIQELKR [4H1710-bH] ?
result: -1.3

query: Which interaction score is listed for DKIQELEKKNEELKRENWELEKKIQELKR [4H2518-bH] ?
result: 0.567
